molecular target: Muscarinic acetylcholine receptor M2 (Homo sapiens)
Lab note: compare Ki with 20 nM, writing 1.0 if less and 0.0 if equal or more.

Compound	Assayed target	Answer label
C[N+](C)(C)CCCCCCCCCC[N+](C)(C)C [Decamethonium Iodide]	Muscarinic acetylcholine receptor M2 (Homo sapiens)	0.0

Query compound follows.
query: Input O=C1CCCN1CC#CCN1CCCC1 ; condition: Ki strictly below 20 nM. Does it hold?
result: 0.0

----------
Quick note: these are pKi numbers for system: Muscarinic acetylcholine receptor M2 (Homo sapiens, UniProt P08172)
Sequence (P08172 whole entry): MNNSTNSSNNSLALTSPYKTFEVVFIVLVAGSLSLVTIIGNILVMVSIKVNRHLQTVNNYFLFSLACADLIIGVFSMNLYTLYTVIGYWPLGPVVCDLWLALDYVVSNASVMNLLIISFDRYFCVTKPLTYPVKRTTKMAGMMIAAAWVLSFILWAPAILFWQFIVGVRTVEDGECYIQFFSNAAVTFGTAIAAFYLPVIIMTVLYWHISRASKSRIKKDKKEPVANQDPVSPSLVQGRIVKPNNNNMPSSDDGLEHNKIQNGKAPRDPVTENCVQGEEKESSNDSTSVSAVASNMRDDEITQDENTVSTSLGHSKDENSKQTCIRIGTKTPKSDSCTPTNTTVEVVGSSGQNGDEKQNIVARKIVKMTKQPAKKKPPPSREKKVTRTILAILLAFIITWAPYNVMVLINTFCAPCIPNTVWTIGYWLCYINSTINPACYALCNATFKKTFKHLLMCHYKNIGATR
// scale note: pKi = -log10(conc_M); give the bare number

The examples below pair each entry with its known result.
Molecule	pKi
COc1cc2c3cc1Oc1cc(ccc1O)C[C@H]1c4c(cc(OC)c(O)c4Oc4ccc(cc4)C[C@@H]3N(C)CC2)CC[N+]1(C)C	7.01
C[N+]1(C)CCO[C@@](O)(c2ccc(-c3ccc([C@@]4(O)C[N+](C)(C)CCO4)cc3)cc2)C1	7.96
C[C@H]1OC(=O)C2C[C@H]3CCCC[C@@H]3[C@@H](/C=C/[C@@H]3CCC[C@H](C)N3C)C21 (some centres undefined)	7.92

Would you kindly look at the next entry?
query: Provide pKi, tested on Muscarinic acetylcholine receptor M2 (Homo sapiens, UniProt P08172), for CN(C)CCCN1c2ccccc2CCc2ccccc21 .
result: 9.89

All values here come from BindingDB's records for PubMed 9454790.
